inhibition by entry:
biological target: Receptor-type tyrosine-protein kinase FLT3 (Homo sapiens) (UniProt P36888); assay: inhibitors of Homo sapiens fms-like tyrosine kinase 3, primary HTS, cell-free, LANCE Ultra TR-FRET, NPC library from NCATS (AID 1117356); conditions: recombinant FLT3, LANCE Ultra TR-FRET kinase assay; inhibition; at 0.2 µM; stronger effect = higher value
Sequence (P36888 whole entry, looked up): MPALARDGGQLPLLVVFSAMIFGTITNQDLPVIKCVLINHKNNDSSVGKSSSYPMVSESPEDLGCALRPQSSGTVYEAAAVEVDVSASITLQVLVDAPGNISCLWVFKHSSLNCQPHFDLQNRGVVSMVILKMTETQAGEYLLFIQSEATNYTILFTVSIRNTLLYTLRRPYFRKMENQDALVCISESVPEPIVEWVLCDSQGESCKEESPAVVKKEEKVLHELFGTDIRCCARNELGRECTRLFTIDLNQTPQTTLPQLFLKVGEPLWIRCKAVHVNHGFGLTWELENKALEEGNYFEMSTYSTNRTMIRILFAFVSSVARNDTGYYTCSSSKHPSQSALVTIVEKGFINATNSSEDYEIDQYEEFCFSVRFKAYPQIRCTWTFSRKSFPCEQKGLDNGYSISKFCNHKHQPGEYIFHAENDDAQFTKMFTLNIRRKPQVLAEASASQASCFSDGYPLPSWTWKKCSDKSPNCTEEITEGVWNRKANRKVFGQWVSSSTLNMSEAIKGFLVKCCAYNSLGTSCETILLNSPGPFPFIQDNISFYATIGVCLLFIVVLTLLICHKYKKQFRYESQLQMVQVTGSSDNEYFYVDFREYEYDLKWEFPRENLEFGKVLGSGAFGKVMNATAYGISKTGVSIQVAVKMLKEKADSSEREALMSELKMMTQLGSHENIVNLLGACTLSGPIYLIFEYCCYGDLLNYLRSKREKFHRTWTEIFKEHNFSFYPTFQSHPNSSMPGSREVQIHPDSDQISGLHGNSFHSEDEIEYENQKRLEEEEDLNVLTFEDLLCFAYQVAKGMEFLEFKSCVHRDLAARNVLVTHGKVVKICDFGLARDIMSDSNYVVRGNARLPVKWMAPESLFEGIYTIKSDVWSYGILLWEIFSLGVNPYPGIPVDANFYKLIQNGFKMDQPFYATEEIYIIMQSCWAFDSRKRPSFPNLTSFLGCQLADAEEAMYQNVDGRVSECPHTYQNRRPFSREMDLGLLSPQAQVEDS
// units = %; emit number, no label

Here's what some known entries look like.
{"molecule": "Cc1ccccc1C(=O)Nc1ccc(C(=O)N2CCCC(N(C)C)c3ccccc32)cc1 (stereo not given)", "value unit": "%", "inhibition": -17.9}
{"molecule": "CCCCC1C(=O)N(c2ccccc2)N(c2ccc(O)cc2)C1=O (stereo not given)", "value unit": "%", "inhibition": -10}
{"molecule": "COC(=O)c1nc(Cl)c(Cl)nc1N", "value unit": "%", "inhibition": 16.3}

Quick one: inhibition for `CNC(=O)c1cc(Oc2ccc(NC(=O)Nc3ccc(Cl)c(C(F)(F)F)c3)cc2)ccn1` ?
60.7

Query `CC[C@]1(O)C[C@H]2CN(CCc3c([nH]c4ccccc34)[C@@](C(=O)OC)(c3cc4c(cc3OC)N(C=O)[C@H]3[C@@](O)(C(=O)OC)[C@H](OC(C)=O)[C@]5(CC)C=CCN6CC[C@]43[C@@H]65)C2)C1` next
-6.96

====

molecular target: Receptor-type tyrosine-protein kinase FLT3 (Homo sapiens); experiment: inhibitors of Homo sapiens fms-like tyrosine kinase 3, primary HTS, cell-free, LANCE Ultra TR-FRET, NPC library from NCATS (AID 1117356); conditions: recombinant FLT3, LANCE Ultra TR-FRET kinase assay; inhibition; at 0.2 µM; stronger effect = higher value
# inhibition annotations
# value in %; strip the unit string

Sample records with inhibition:
{"compound": "Cc1cc(=O)c2c(O)c3c(O)cc(=O)c4c3c3c(cc(O)c1c23)C(C)(C)C=4O", "metric name": "inhibition", "value unit": "%", "measured result": -7.52}
{"compound": "CCC1=C[C@@H]2CN(C1)Cc1c([nH]c3ccccc13)[C@@](C(=O)OC)(c1cc3c(cc1OC)N(C)[C@H]1[C@@](O)(C(=O)OC)[C@H](OC(C)=O)[C@]4(CC)C=CCN5CC[C@]31[C@@H]54)C2", "metric name": "inhibition", "value unit": "%", "measured result": -17.1}
{"compound": "CCc1nc(N)nc(N)c1-c1ccc(Cl)cc1", "metric name": "inhibition", "value unit": "%", "measured result": -33.1}
{"compound": "CCCOc1ccc2nc(NC(=O)OC)[nH]c2c1", "metric name": "inhibition", "value unit": "%", "measured result": -19.3}
{"compound": "COc1ccc(-c2nc3ccc(C4=NNC(=O)CC4C)cc3[nH]2)cc1 (stereo unspecified)", "metric name": "inhibition", "value unit": "%", "measured result": -3.88}
{"compound": "COC(=O)Nc1nc2ccc(C(=O)c3ccccc3)cc2[nH]1", "metric name": "inhibition", "value unit": "%", "measured result": -25.2}

Which inhibition reading was recorded for the compound CSc1ccc2c(c1)C(N1CCN(C)CC1)Cc1ccccc1S2 (stereo unspecified) ?
-5.03

Same again, this time with `CC[C@]1(O)C[C@@H]2CN(CCc3c([nH]c4ccccc34)[C@@](C(=O)OC)(c3cc4c(cc3OC)N(C)[C@H]3[C@@](O)(C(=O)OC)[C@H](OC(C)=O)[C@]5(CC)C=CCN6CC[C@]43[C@@H]65)C2)C1`
-16.1

One more compound: `Oc1c(Cl)cc(Cl)cc1Sc1cc(Cl)cc(Cl)c1O`
-17

Repeat with `COC(=O)[C@H]1[C@H]2C[C@@H]3c4[nH]c5cc(OC)ccc5c4CCN3C[C@H]2C[C@@H](OC(=O)/C=C/c2ccc(O)c(OC)c2)[C@@H]1OC`
-33.5

Same lookup for `COC(=O)Nc1nc2ccc(C(=O)C3CC3)cc2[nH]1` , please.
-3.31

Now consider `CCCCCCCCCCCCCCCCCCNC(=O)OC1CCN(C(=O)OC[C@H](COC(=O)N(Cc2cccc[n+]2CC)C(=O)c2ccccc2OC)OC)CC1` .
-4.54

# repeat for `CN(C)c1ccc2nc3ccc(=[N+](C)C)cc-3sc2c1`
-18.8

How about this compound: CCC(C)n1ncn(-c2ccc(N3CCN(c4ccc(OC[C@H]5CO[C@](Cn6cncn6)(c6ccc(Cl)cc6Cl)O5)cc4)CC3)cc2)c1=O (stereo partly specified)
-46.1

Reference source: PubChem BioAssay AID1117356
